test: activity coefficient (dimensionless); of the first substance listed, at infinite dilution; xn = mol fraction of the nth substance listed; conditions: 322.55 K; Liquid; inverse gas chromatography; x1 = 0
reportedMetric: activity coefficient
Response field accepts a number only; no unit should be typed.

Previously resolved entries follow.
Q. Sample CCOCC [diethyl ether] + CCCCn1cc[n+](C)c1.F[B-](F)(F)F — what was its activity coefficient?
A. 8.18

Q. Look up activity coefficient: CO [methanol] + CCCCn1cc[n+](C)c1.F[B-](F)(F)F
A. 1.22

Q. GET /values?readout=activity coefficient&item= Cc1ccccc1 [toluene] + CCCCn1cc[n+](C)c1.F[B-](F)(F)F
A. 3.97

Q. // activity coefficient lookup, key: ClC(Cl)Cl [trichloromethane] + CCCCn1cc[n+](C)c1.F[B-](F)(F)F
A. 1.09

Q. What activity coefficient value was documented for this molecule, CCCO [propan-1-ol] + CCCCn1cc[n+](C)c1.F[B-](F)(F)F ?
A. 2.43

More entries:
Q. Entry under review: CCC[N+](=O)[O-] [1-nitropropane] + CCCCn1cc[n+](C)c1.F[B-](F)(F)F . Reported activity coefficient?
A. 1.46

Q. Reported activity coefficient for ClCCl [dichloromethane] + CCCCn1cc[n+](C)c1.F[B-](F)(F)F : what is it?
A. 0.79

Q. Which activity coefficient value belongs to ClC(Cl)(Cl)Cl [tetrachloromethane] + CCCCn1cc[n+](C)c1.F[B-](F)(F)F ?
A. 5.38

====

Catalogue of compounds with associated activity coefficient
assay: activity coefficient (dimensionless); of the first substance listed, at infinite dilution; xn = mol fraction of the nth substance listed; conditions: 332.55 K; Liquid; inverse gas chromatography; x1 = 0
Provide a numeric answer; units are not to be included.

In the examples that follow, each entry is paired with its recorded activity coefficient.
Q. activity coefficient for CCc1ccccc1 [ethylbenzene] + CCCCn1cc[n+](C)c1.F[B-](F)(F)F ?
A. 6.51

Q. Requested field: activity coefficient. Item: C#CCCCCC [1-heptyne] + CCCCn1cc[n+](C)c1.F[B-](F)(F)F
A. 11.7

Q. Look at this compound and give its reported activity coefficient. CCO [ethanol] + CCCCn1cc[n+](C)c1.F[B-](F)(F)F
A. 1.53

Q. Request the reported activity coefficient associated with CCCC(C)=O [pentan-2-one] + CCCCn1cc[n+](C)c1.F[B-](F)(F)F
A. 2.53

Q. Entry CCCO [propan-1-ol] + CCCCn1cc[n+](C)c1.F[B-](F)(F)F has what activity coefficient?
A. 2.14

Moving on to the next compound.
Q. Entry under review: CC(C)CO [2-methyl-1-propanol] + CCCCn1cc[n+](C)c1.F[B-](F)(F)F . Reported activity coefficient?
A. 2.84

====

experiment: activity coefficient (dimensionless); of the first substance listed, at infinite dilution; xn = mol fraction of the nth substance listed; conditions: 312.55 K; Liquid; inverse gas chromatography; x1 = 0
Each record is given yes if its reported activity coefficient is strictly below 6. Records at or above 6 are given no.

Study these solved cases before continuing.
Q. Just wondering, is activity coefficient of ClC(Cl)Cl [trichloromethane] + CCCCn1cc[n+](C)c1.F[B-](F)(F)F below 6?
A. yes

Q. Quick check: activity coefficient of ClCCl [dichloromethane] + CCCCn1cc[n+](C)c1.F[B-](F)(F)F under 6?
A. yes

Q. State whether 6 exceeds activity coefficient recorded for Cc1ccccc1C [1,2-dimethylbenzene] + CCCCn1cc[n+](C)c1.F[B-](F)(F)F .
A. yes

Q. Is the reported activity coefficient for Cc1cccc(C)c1 [1,3-dimethylbenzene] + CCCCn1cc[n+](C)c1.F[B-](F)(F)F strictly below 6?
A. no

Consider the additional molecule presented here.
Q. Confirm or reject: activity coefficient of CCCC=O [butanal] + CCCCn1cc[n+](C)c1.F[B-](F)(F)F lies strictly below 6
A. yes

====

assay: activity coefficient (dimensionless); of the first substance listed, at infinite dilution; xn = mol fraction of the nth substance listed; settings: 332.55 K; Liquid; inverse gas chromatography; x1 = 0
Measured activity coefficient by item
Reply with just the number.

Please review the entries below; each comes with its answer.
Q. Fill blank: measured activity coefficient of the molecule CO [methanol] + CCCCn1cc[n+](C)c1.F[B-](F)(F)F is ____.
A. 1.18

Q. Recorded activity coefficient of CC#N [acetonitrile] + CCCCn1cc[n+](C)c1.F[B-](F)(F)F , please.
A. 0.61

Q. # activity coefficient lookup, item c1ccncc1 [pyridine] + CCCCn1cc[n+](C)c1.F[B-](F)(F)F
A. 0.94

Q. Reported activity coefficient for C[N+](=O)[O-] [nitromethane] + CCCCn1cc[n+](C)c1.F[B-](F)(F)F : what is it?
A. 0.56

Q. I would be grateful if you could share the reported activity coefficient for Cc1ccc(C)cc1 [1,4-dimethylbenzene] + CCCCn1cc[n+](C)c1.F[B-](F)(F)F .
A. 6.26

Q. Record request: activity coefficient value, item Cc1ccccc1C [1,2-dimethylbenzene] + CCCCn1cc[n+](C)c1.F[B-](F)(F)F
A. 4.77

Q. What does the record list as activity coefficient for Cc1ccccc1 [toluene] + CCCCn1cc[n+](C)c1.F[B-](F)(F)F ?
A. 3.84

Q. What measured activity coefficient goes with ClC(Cl)(Cl)Cl [tetrachloromethane] + CCCCn1cc[n+](C)c1.F[B-](F)(F)F ?
A. 5.2

***
Q. Give its activity coefficient value. Item: CCC(C)=O [butanone] + CCCCn1cc[n+](C)c1.F[B-](F)(F)F
A. 1.25

Q. Given CCOCC [diethyl ether] + CCCCn1cc[n+](C)c1.F[B-](F)(F)F , state its recorded activity coefficient.
A. 7.42

====

test: activity coefficient (dimensionless); of the first substance listed, at infinite dilution; xn = mol fraction of the nth substance listed; conditions: 312.55 K; Liquid; inverse gas chromatography; x1 = 0
reportedMetric: activity coefficient
Just the number, please, no unit attached.

Q. Endpoint output: activity coefficient of c1ccsc1 [thiophene] + CCCCn1cc[n+](C)c1.F[B-](F)(F)F . Value?
A. 1.52

Continuing:
Q. Which activity coefficient is reported for this compound? CCCCCCCC [octane] + CCCCn1cc[n+](C)c1.F[B-](F)(F)F
A. 368

Q. Suppose we examine the compound CC(C)OC(C)C [diisopropyl ether] + CCCCn1cc[n+](C)c1.F[B-](F)(F)F ; what activity coefficient value has been reported?
A. 33.5

Q. Fill in: activity coefficient of CCc1ccccc1 [ethylbenzene] + CCCCn1cc[n+](C)c1.F[B-](F)(F)F is ___
A. 6.73

Q. Quick check: activity coefficient of CCOCC [diethyl ether] + CCCCn1cc[n+](C)c1.F[B-](F)(F)F ?
A. 9.39

Q. # input compound: ClC(Cl)(Cl)Cl [tetrachloromethane] + CCCCn1cc[n+](C)c1.F[B-](F)(F)F ; wanted: its activity coefficient
A. 5.44

Q. Data request, read-out activity coefficient, for Cc1ccc(C)cc1 [1,4-dimethylbenzene] + CCCCn1cc[n+](C)c1.F[B-](F)(F)F
A. 6.68

Q. Sample CC(C)O [propan-2-ol] + CCCCn1cc[n+](C)c1.F[B-](F)(F)F — what was its activity coefficient?
A. 2.76

Q. I'd like to know its activity coefficient. The compound in question is CCC[N+](=O)[O-] [1-nitropropane] + CCCCn1cc[n+](C)c1.F[B-](F)(F)F
A. 1.46

====

assay: activity coefficient (dimensionless); of the first substance listed, at infinite dilution; xn = mol fraction of the nth substance listed; conditions: 322.55 K; Liquid; inverse gas chromatography; x1 = 0
Response field label: string, one of yes (1) (activity coefficient strictly below 10) or no (0).

Below are worked cases with known answers.
Q. # strict comparison: is reported activity coefficient < 10? input = C1CCCCCC1 [cycloheptane] + CCCCn1cc[n+](C)c1.F[B-](F)(F)F
A. no (0)

Q. Given CCCCCCC [heptane] + CCCCn1cc[n+](C)c1.F[B-](F)(F)F , is recorded activity coefficient strictly lower than 10?
A. no (0)

Q. Item CCCC=O [butanal] + CCCCn1cc[n+](C)c1.F[B-](F)(F)F : activity coefficient beneath 10, strictly?
A. yes (1)

Q. Field: below-cutoff. Rule: recorded activity coefficient strictly less than 10. Subject: CC(C)CC(C)(C)C [2,2,4-trimethylpentane] + CCCCn1cc[n+](C)c1.F[B-](F)(F)F
A. no (0)

Q. Lab note: confirm whether the reported activity coefficient for this compound is below 10, equality not counting. compound: Cc1ccccc1C [1,2-dimethylbenzene] + CCCCn1cc[n+](C)c1.F[B-](F)(F)F
A. yes (1)

Q. Lab note: activity coefficient threshold 10. Does this compound come in strictly under it? OCC(F)(F)F [2,2,2-trifluoroethanol] + CCCCn1cc[n+](C)c1.F[B-](F)(F)F
A. yes (1)

Q. Field: below-cutoff. Rule: recorded activity coefficient strictly less than 10. Subject: CCCCCCCC [octane] + CCCCn1cc[n+](C)c1.F[B-](F)(F)F
A. no (0)

Q. Decide: activity coefficient of C=CCCCC [hex-1-ene] + CCCCn1cc[n+](C)c1.F[B-](F)(F)F strictly below 10?
A. no (0)

More entries:
Q. Does the reported activity coefficient of the following compound sit strictly below 10? CCC(C)=O [butanone] + CCCCn1cc[n+](C)c1.F[B-](F)(F)F
A. yes (1)

Q. Please state whether activity coefficient is below 10 for CCN(CC)CC [triethylamine] + CCCCn1cc[n+](C)c1.F[B-](F)(F)F
A. no (0)

Q. Say whether its activity coefficient is strictly beneath 10. Entry: C#CCCCCC [1-heptyne] + CCCCn1cc[n+](C)c1.F[B-](F)(F)F
A. no (0)

Each recorded value in this set is attributed to the NIST ThermoML archive (doi:10.1021/je800658v).
